// plant injury rating, Vele lookup, one value per entry
Test system: Vele
Assay: plant injury after spraying emerged plants (Table D)
Assay type: in vivo
Design: scale not given here
Conditions: 0.2803 kg/ha
Write the value as a bare number.

For orientation, consider the following solved cases.
COC(=O)c1c(OC)nc(C(F)(F)F)c(C(=O)SC)c1C1CCC1 = 3
COC(=O)c1c(OC)nc(C(F)(F)F)c(C2SCCS2)c1CC(C)C = 0
COC(=O)c1c(OC)nc(C(F)(F)F)c(C(=O)n2ccc(F)n2)c1C1CCC1 = 3
COC(=O)c1c(OC)nc(C(F)(F)F)c(C(=O)NCCCBr)c1CC(C)C = 0
COC(=O)c1c(OC)nc(C(F)(F)F)c(C2=NCCCS2)c1CC(C)C = 2

Q) Tell me plant injury rating, Vele reported for COC(=O)c1c(OC)nc(C(F)(F)F)c(-c2nnc(C)o2)c1CC(C)C
A) 0

Q) Tell me plant injury rating, Vele reported for COC(=O)c1c(OC)nc(C(F)(F)F)c(C(=O)n2cccn2)c1CC1CC1
A) 2

Q) Tell me plant injury rating, Vele reported for COC(=O)c1c(OC)nc(C(F)(F)F)c(C(=O)Cl)c1CC1CC1
A) 0

Q) Tell me plant injury rating, Vele reported for COC(=O)c1c(O)nc(C(F)(F)F)c(C(=O)OC)c1CC(C)C
A) 2

---

System: Mogl
Assay: plant injury after spraying emerged plants (Table D)
Type: in vivo
Design: scale not given here
Conditions: 1.1210 kg/ha
MEASURED QUANTITY: plant injury rating, Mogl
Write the value as a bare number.

For orientation, consider the following solved cases.
COC(=O)c1c(OC)nc(C(F)(F)F)c(C(=O)n2ccc(F)n2)c1C1CCC1 [Compound 140] = 2
COC(=O)c1c(OC)nc(C(F)(F)F)c(N=CSC)c1CC(C)C [Compound 77] = 1
COC(=O)c1c(OC)nc(C(F)(F)F)c(C2SCCS2)c1CC(C)C [Compound 93] = 2

Q) Tell me plant injury rating, Mogl reported for COC(=O)c1c(OC)nc(C(F)(F)F)c(C(=O)SC)c1C1CCC1 [Compound 137]
A) 1

Q) Tell me plant injury rating, Mogl reported for COC(=O)c1c(OC)nc(C(F)(F)F)c(C(=O)Cl)c1CC1CC1 [Compound 113]
A) 0

Q) Tell me plant injury rating, Mogl reported for COC(=O)c1c(OC)nc(C(F)(F)F)c(C2=NCCCS2)c1CC(C)C [Compound 98]
A) 1

---

// plant injury rating, Rape lookup, one value per entry
Tested on: Rape
Test: plant injury after spraying emerged plants (Table D)
Format: in vivo
Parameters: scale not given here
Conditions: 1.1210 kg/ha
Write the value as a bare number.

COC(=O)c1c(OC)nc(C(F)(F)F)c(C(=O)n2cccn2)c1CC1CC1 = 3
COC(=O)c1c(OC)nc(C(F)(F)F)c(C(=O)Cl)c1CC1CC1 = 0
COC(=O)c1c(OC)nc(C(F)(F)F)c(C(=O)SC)c1C1CCC1 = 3
COC(=O)c1c(OC)nc(C(F)(F)F)c(C(=O)NCCCBr)c1CC(C)C = 0
COC(=O)c1c(OC)nc(C(F)(F)F)c(C2=NCCS2)c1CC(C)C = 3

Q) Specify plant injury rating, Rape for COC(=O)c1c(OC)nc(C(F)(F)F)c(C2SCCS2)c1CC(C)C , system Rape.
A) 3

Q) Specify plant injury rating, Rape for COC(=O)c1c(OC)nc(C(F)(F)F)c(C2=NCCCS2)c1CC(C)C , system Rape.
A) 1

Q) Specify plant injury rating, Rape for COC(=O)c1c(OC)nc(C(F)(F)F)c(C(=O)n2ccc(F)n2)c1C1CCC1 , system Rape.
A) 3
